Below, each entry is listed with its recorded IC50.
# Target Under Test: human hNET (Homo sapiens)
# Construct: expressed in transfected cells; host or cells: MDCK-Net6 (MDCK cells stably transfected)
# Sequence (P23975 whole entry): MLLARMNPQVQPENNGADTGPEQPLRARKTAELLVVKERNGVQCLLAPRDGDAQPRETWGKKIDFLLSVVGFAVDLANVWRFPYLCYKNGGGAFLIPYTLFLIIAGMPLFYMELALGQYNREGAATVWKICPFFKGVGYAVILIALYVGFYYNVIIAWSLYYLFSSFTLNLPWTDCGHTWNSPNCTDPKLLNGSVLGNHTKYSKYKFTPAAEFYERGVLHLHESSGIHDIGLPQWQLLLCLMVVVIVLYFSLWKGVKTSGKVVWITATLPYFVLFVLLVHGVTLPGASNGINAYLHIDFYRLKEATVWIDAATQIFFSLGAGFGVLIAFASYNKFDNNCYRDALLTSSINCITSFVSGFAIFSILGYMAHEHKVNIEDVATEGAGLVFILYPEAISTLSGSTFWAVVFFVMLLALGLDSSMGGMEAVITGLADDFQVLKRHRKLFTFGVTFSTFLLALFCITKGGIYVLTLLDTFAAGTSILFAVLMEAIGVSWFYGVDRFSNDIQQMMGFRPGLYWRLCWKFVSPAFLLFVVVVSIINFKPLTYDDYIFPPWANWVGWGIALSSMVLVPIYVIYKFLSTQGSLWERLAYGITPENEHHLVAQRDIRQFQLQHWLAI
# Assay Overview: Functional Norepinephrine (NE) Uptake Assay in MDCK-Net6 cells
# Assay type: cell-based
# Study Conditions: MDCK-Net6 cells stably transfected with human hNET; 3H norepinephrine 16 nM
Where a name gives a salt, the structure may show the parent alone.
State just the number; it will be interpreted in nM.

| Molecule | Units | IC50 |
| --- | --- | --- |
| CNCCCN1Cc2cc(F)ccc2N(c2ccccc2F)S1(=O)=O | nM | 119 |
| CNCCCN1Cc2ccccc2N(c2ccc(OC)cc2)S1(=O)=O [Example 9, hydrochloride] | nM | 3550 |
| O=S1(=O)N(CCNC2CC2)Cc2cc(F)ccc2N1c1ccccc1F | nM | 2870 |

Entry under review: CNCCCN1Cc2ccccc2N(c2cccc(C)c2)S1(=O)=O [Example 3, hydrochloride] . Reported IC50?
1030
